Please respond with reported growth inhibition for every item in the list.
test: NCI Yeast Anticancer Drug Screen. Data for the rad50 strain (AID 155);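 also: 0% = growth of vehicle-only cultures of the same strain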
recorded.conditions: S. cerevisiae rad50 strain growth inhibition; at 1.2 µM; stronger effect = higher value
The panel holds about 79,000 compounds, 15% with a hit somewhere; the sample as a whole holds those more often. Activity calls are given as the source filed them. Rule as the data show it: active = growth inhibition above about 70%; inactive = the rest.

(Q) Give reported growth inhibition value for c1ccc(-c2cc(C3CO3)c3ccccc3n2)cc1 (configuration not stated)
(A) -4% (inactive)

(Q) Give reported growth inhibition value for "CCCCCCCCCCCCCCN"
(A) 11% (inactive)

(Q) Give reported growth inhibition value for "CCC[CH2][Sn]([CH2]CCC)([CH2]CCC)/[C](=C/[Si](C)(C)c1ccccc1)c1ccc2c(c1)OCO2"
(A) 13% (inactive)

(Q) Give reported growth inhibition value for "O=C1C(=O)c2cccc([N+](=O)[O-])c2-c2ccccc21"
(A) -78% (inactive)

(Q) Give reported growth inhibition value for CC12CCC(CC(=O)/C1=C(/Br)I)C2(C)C (configuration not stated)
(A) 1% (inactive)

(Q) Give reported growth inhibition value for "O=C(Nn1c(-c2ccccc2)nc2ccccc2c1=O)c1ccc(CS)cc1"
(A) -5% (inactive)

(Q) Give reported growth inhibition value for "CC1=COC2=C(C)C(=O)C(=O)c3c(C)ccc1c32"
(A) 34% (inactive)

---

Please respond with reported growth inhibition for every item in the list.
test: NCI Yeast Anticancer Drug Screen. Data for the rad50 strain (AID 155);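 also: 0% = growth of vehicle-only cultures of the same strain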
recorded.conditions: S. cerevisiae rad50 strain growth inhibition; at 5.0 µM (retest, dose inferred, filed as 0.5); stronger effect = higher value
Compounds without any hit were thinned out: in the full panel of roughly 79,000, 15% have a hit.
Give the number; % is assumed, so skip it.

(Q) Give reported growth inhibition value for "O=[N+]([O-])c1ccc2nc(=S)[nH]n2c1"
(A) -130

(Q) Give reported growth inhibition value for Cc1cccc(C)c1NC(=O)C(C#N)C1=C(Cl)C(=O)c2ccccc2C1=O (stereo not given)
(A) 95

(Q) Give reported growth inhibition value for "O=C1C(=O)c2cccc([N+](=O)[O-])c2-c2ccccc21"
(A) 19

(Q) Give reported growth inhibition value for "CCOC(=O)/C(=C/c1cccc(Cl)c1)N(CC)CC"
(A) 17

(Q) Give reported growth inhibition value for "c1ccc2c(c1)ccn2CCc1c[nH]c2ccccc12"
(A) -13

---

test: NCI Yeast Anticancer Drug Screen. Data for the rad14 strain (AID 159);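 also: 0% = growth of vehicle-treated control cultures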
recorded.conditions: S. cerevisiae rad14 strain growth inhibition; at 1.2 µM; stronger effect = higher value
About 79,000 compounds went through this panel and 15% of them were active in at least one assay; those are over-represented in the sample as a whole. Calls of active or inactive are those of the source. Rule as the data show it: active = growth inhibition above about 70%; inactive = the rest.
outcome.measure: growth inhibition

(Q) Give reported growth inhibition value for O=C(O)c1cc2c(cc1S(=O)(=O)O)C1C(C3C2C2(Cl)C(Cl)=C(Cl)C3(Cl)C2(Cl)Cl)C2(Cl)C(Cl)=C(Cl)C1(Cl)C2(Cl)Cl (configuration not stated)
(A) 0% (inactive)

(Q) Give reported growth inhibition value for "CCC[CH2][Sn]([CH2]CCC)([CH2]CCC)/[C](=C/[Si](C)(C)c1ccccc1)c1ccc2c(c1)OCO2"
(A) 1% (inactive)

(Q) Give reported growth inhibition value for "ClCCCOc1c(Cl)cc(Cl)cc1Cl"
(A) -4% (inactive)

(Q) Give reported growth inhibition value for "Cc1c2c(nc3ccccc13)C(=O)c1cccnc1C2=O"
(A) 3% (inactive)

(Q) Give reported growth inhibition value for "O=S1(=O)CCC2=CC(C(F)(F)F)=CC(C(F)(F)F)=CN21"
(A) 25% (inactive)

(Q) Give reported growth inhibition value for "CCN(CC)CCNc1ccc(C)c2sc3ccc(O)cc3c(=O)c12"
(A) 23% (inactive)

(Q) Give reported growth inhibition value for "CCN(CC)CCNc1ccc2nc(C)n3c4ccc(OC)cc4c(=O)c1c23"
(A) 33% (inactive)

(Q) Give reported growth inhibition value for "CSC(=S)N/N=C/c1ccccc1"
(A) -1% (inactive)

(Q) Give reported growth inhibition value for CC(C)(CN1CCCCC1)C(=O)CC(SCCS(=O)(=O)O)c1ccccc1 (configuration not stated)
(A) 3% (inactive)

(Q) Give reported growth inhibition value for "O=[N+]([O-])/C=C/c1cc2ccc3ccccc3c2[nH]1"
(A) 11% (inactive)

(Q) Give reported growth inhibition value for "Nc1ccc2cc(Br)ccc2c1Br"
(A) -6% (inactive)

(Q) Give reported growth inhibition value for COc1cc2c(cc1OC)[C@@H](Nc1ccc(C#N)cc1)C1COC(=O)[C@@H]1C2c1cc(OC)c(O)c(OC)c1 (some centres not stated)
(A) -12% (inactive)

(Q) Give reported growth inhibition value for "Cc1cc(O)c(C(C)C)cc1SC#N"
(A) -4% (inactive)

(Q) Give reported growth inhibition value for O=C(O)c1ccccc1C(=O)OC1CCc2ccccc2C1 (configuration not stated)
(A) -5% (inactive)

(Q) Give reported growth inhibition value for O=S(=O)(NC1CCCC(c2ccccc2)C1)c1ccccc1 (configuration not stated)
(A) 1% (inactive)

(Q) Give reported growth inhibition value for "CN(CCOc1ccc(Cl)cc1)CCOc1ccc(Cl)cc1"
(A) 28% (inactive)

(Q) Give reported growth inhibition value for COC(=O)C1CCCCC1C(=O)Nc1ccccc1 (configuration not stated)
(A) -2% (inactive)

(Q) Give reported growth inhibition value for "Oc1ccc(C2(c3ccc(O)cc3)CCCC2)cc1"
(A) 1% (inactive)

(Q) Give reported growth inhibition value for "CCCCCCCCCCCNC=O"
(A) -7% (inactive)

(Q) Give reported growth inhibition value for N#CC1OB(O)c2ccccc21 (configuration not stated)
(A) -3% (inactive)

(Q) Give reported growth inhibition value for "CNC(=O)OCc1c(COC(=O)NC)c(C)n(-c2ccc(Br)cc2)c1C"
(A) -23% (inactive)

(Q) Give reported growth inhibition value for "COC(=O)c1ccccc1N=NNc1cccc(SC)c1"
(A) -11% (inactive)

(Q) Give reported growth inhibition value for "CC(=O)NC(c1nc2cc(C)c(C)cc2[nH]1)c1nc2cc(C)c(C)cc2[nH]1"
(A) -22% (inactive)

(Q) Give reported growth inhibition value for CN1C(=O)C(CC(=O)O)NC1=S (configuration not stated)
(A) 0% (inactive)

(Q) Give reported growth inhibition value for "Cc1cccc2c(NCCCN(C)C)c3c([N+](=O)[O-])ccc(C)c3nc12"
(A) 98% (active)

(Q) Give reported growth inhibition value for "O=C(c1ccccc1)[C@H]1Nc2ccc(Cl)cc2[C@H]2OCCC[C@@H]12"
(A) -40% (inactive)

(Q) Give reported growth inhibition value for CC(C)C(=O)CC(Sc1ccc(N)cc1)c1ccccc1 (configuration not stated)
(A) 1% (inactive)

(Q) Give reported growth inhibition value for C[C@H](CCC1=NC(C)(C)CO1)C1CCC2[C@@H]3C(O)C[C@@H]4CC(O)CC[C@]4(C)C3CC[C@@]21C (some centres not stated)
(A) -4% (inactive)

(Q) Give reported growth inhibition value for "COc1cc2oc3ccccc3c(=O)c2cc1CSc1ccccc1N"
(A) 0% (inactive)

(Q) Give reported growth inhibition value for "N#[N+]c1c([O-])c2ccccc2c2ccccc12"
(A) 3% (inactive)

(Q) Give reported growth inhibition value for "CN(C)CCNCCCNc1c2ccccc2nc2cccc([N+](=O)[O-])c12"
(A) -2% (inactive)

(Q) Give reported growth inhibition value for "O=S(=O)(c1ccccc1)N1CN2CN(C1)CN(S(=O)(=O)c1ccccc1)C2"
(A) -16% (inactive)

(Q) Give reported growth inhibition value for "Cc1oc2ccccc2c(=O)c1Cn1nnc2ccccc21"
(A) -1% (inactive)

(Q) Give reported growth inhibition value for "CC(=O)N1C=Cc2c(c(C)c3c([nH]c4ccccc43)c2C)C1"
(A) 7% (inactive)

(Q) Give reported growth inhibition value for CC1(C)C(O)OC(O)C1(C)C (configuration not stated)
(A) -2% (inactive)

(Q) Give reported growth inhibition value for O=C1CCC(Cc2ccccc2)CN1 (configuration not stated)
(A) -2% (inactive)

(Q) Give reported growth inhibition value for "c1cc(-c2sc(-c3ccncc3)c(-c3ccncc3)c2-c2ccncc2)ccn1"
(A) 3% (inactive)

---

Please respond with reported growth inhibition for every item in the list.
test: NCI Yeast Anticancer Drug Screen. Data for the wt1 strain (AID 149);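 also: 0% = growth of vehicle-treated wt1 cultures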
recorded.conditions: S. cerevisiae wt1 strain (SPY 50644) growth inhibition; at 100.0 µM; stronger effect = higher value
About 79,000 compounds went through this panel and 15% of them were active in at least one assay; those are over-represented in the sample as a whole. Active and inactive are the calls of the source. Cut-off read from the data, not from the text of the source: active = growth inhibition above about 70%; inactive = the rest.

(Q) Give reported growth inhibition value for "Cc1ccc(S(=O)(=O)N/N=C/C(Br)=C(/Br)C(=O)O)cc1"
(A) 41% (inactive)

(Q) Give reported growth inhibition value for "COC(=O)C(=O)CC(=O)c1cccc(OC)c1"
(A) 39% (inactive)

(Q) Give reported growth inhibition value for "O=[N+]([O-])c1ccc2nc(=S)[nH]n2c1"
(A) 41% (inactive)

(Q) Give reported growth inhibition value for "Fc1ccc(Nc2ccc3ccccc3c2)cc1"
(A) 41% (inactive)

Every entry's value here was drawn from PubChem BioAssay (NCI).
